Consider the following compounds and their measured Th-T fluorescence, mean of three wells readings.
Target: Aβ42 (Homo sapiens)
Test: Th-T (thioflavin-T) assay of Aβ42 aggregation
Type: biochemical
Settings: reading M20; Supplementary Fig. 47 source data
test_readout: Th-T fluorescence, mean of three wells

>>> print(df.to_string())
                                   compound                            test_readout  recorded_value
0  C=C1CC[C@H]2[C@]3(C)C[C@@H](C=C(C)C)O[C@H]3CC[C@]2(C)[C@@H]1Cc1c(OC)oc(CO)c(C)c1=O  Th-T fluorescence, mean of three wells           2.726
1  C=C1CCC2C(C)(CC(=O)C=C(C)C)C(O)CCC2(C)C1Cc1c(O)c(C)c(C)oc1=O (stereo not shown)  Th-T fluorescence, mean of three wells            1.37
2  C=C1CCC2C3(C)CC(C=C(C)C)OC3CCC2(C)C1Cc1c(OC)oc(C)c(C)c1=O (stereo not shown)  Th-T fluorescence, mean of three wells            3.42
3  C=C1CC[C@H]2[C@]3(C)C[C@H](C=C(C)C)O[C@H]3CC[C@]2(C)[C@@H]1Cc1c(OC)oc(C)c(C)c1=O  Th-T fluorescence, mean of three wells           3.759
4  C=C1CCC2C(C)(CCC=C(C)C)C(=O)CCC2(C)C1Cc1c(O)c(C)c(C)oc1=O (stereo not shown)  Th-T fluorescence, mean of three wells           1.804
5  C=C1CCC2C(C)(CC(=O)C=C(C)C)C(O)CCC2(C)C1Cc1c(OC)oc(C)c(C)c1=O (stereo not shown)  Th-T fluorescence, mean of three wells           3.357
6  C=C1CC[C@H]2[C@]3(C)C[C@H](C=C(C)C)O[C@H]3CC[C@]2(C)[C@@H]1Cc1c(OC)oc(CO)c(C)c1=O  Th-T fluorescence, mean of three wells           3.511

====

Biological target: Aβ42 (Homo sapiens, UniProt P05067)
Sequence (P05067 672-713): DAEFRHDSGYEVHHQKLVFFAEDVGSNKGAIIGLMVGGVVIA
Assay: Th-T (thioflavin-T) assay of Aβ42 aggregation
Assay type: biochemical
Details: head suffix _20 (concentration 20); reading M69
test_readout: Th-T fluorescence of Aβ42 (sheet Fig. 7a), mean of three wells

In [3]: df
Out[3]:
                                   compound  recorded_value
0  C=C1CCC2C(C)(CCC=C(C)C)C(O)CCC2(C)C1Cc1c(OC)oc(CO)c(C(=O)OC)c1=O (centres unmarked) [Compound 13]           1.053
1  C=C1CCC2C(C)(CCC=C(C)C)C(O)CCC2(C)C1Cc1c(OC)oc(C)c(C(=O)OC)c1=O (centres unmarked) [Compound 14]          2.0412
2  C=C1CC[C@@H]2[C@](C)(CC[C@H]3O[C@H](C=C(C)C)C[C@@]23C)[C@@H]1Cc1c(OC)oc(CO)c(C(=O)OC)c1=O [Compound 21]          0.2677
3  C=C1CCC2C(C)(CCC=C(C)C)C(O)CCC2(C)C1Cc1c(OC)oc(CO)c(C)c1=O (centres unmarked) [Compound 12]            2.09
4  C=C1CC[C@@H]2[C@](C)(CC[C@H]3O[C@H](C=C(C)C)C[C@@]23C)[C@@H]1Cc1c(OC)oc(CO)c(C)c1=O [Compound 20]           3.405
